Assay: Lipophilicity: octanol-water partition coefficient, shake-flask method
What Log P was measured for each of the following?
Field format: numeric only.

Exercise: Please give the measured Log P for this compound: F[P-](F)(F)(F)(F)F.O=C(NCCCn1cc[n+]2[c]1[Ir-3]13([c]4ccccc4-c4ccc5ccccc5[n+]41)([c]1ccccc1-c1ccc4ccccc4[n+]13)[n+]1ccccc1-2)[c-]1cccc1.[Fe+2].c1cc[cH-]c1
Solution: 1.42

Exercise: Now the same for F[P-](F)(F)(F)(F)F.O=C(CCCC[C@@H]1SC[C@@H]2NC(=O)N[C@@H]21)NCCCn1cc[n+]2[c]1[Ir-3]13([c]4ccccc4-c4sc5ccccc5[n+]41)([c]1ccccc1-c1sc4ccccc4[n+]13)[n+]1ccccc1-2
Solution: 0.87

Exercise: Now the same for F[P-](F)(F)(F)(F)F.O=C(O)CC[C@H](NC(=O)N[C@@H](CCCCNC(=O)CCn1cc[n+]2[c]1[Ir-3]13([c]4ccccc4-c4sc5ccccc5[n+]41)([c]1ccccc1-c1sc4ccccc4[n+]13)[n+]1ccccc1-2)C(=O)O)C(=O)O
Solution: −0.14

---

System: T24 bladder cancer cells
Assay: Cell viability assay (MTT), dark and blue light
Assay type: cell-based, Human
Details: T24, dark
What SI (vs NIH-3T3) was measured for each of the following?

Exercise: Please give the measured SI (vs NIH-3T3) for this compound: F[P-](F)(F)(F)(F)F.O=C(NCCCn1cc[n+]2[c]1[Ir-3]13([c]4ccccc4-c4c5ccccc5cc[n+]41)([c]1ccccc1-c1c4ccccc4cc[n+]13)[n+]1ccccc1-2)[c-]1cccc1.[Fe+2].c1cc[cH-]c1
Solution: 10.2

Exercise: Now the same for F[P-](F)(F)(F)(F)F.O=C(NCCCn1cc[n+]2[c]1[Ir-3]13([c]4cccc5ccc6ccc[n+]1c6c45)([c]1cccc4ccc5ccc[n+]3c5c14)[n+]1ccccc1-2)[c-]1cccc1.[Fe+2].c1cc[cH-]c1
Solution: 23.2

Exercise: Now the same for F[P-](F)(F)(F)(F)F.O=C(NCCCn1cc[n+]2[c]1[Ir-3]13([c]4ccccc4-c4sc5ccccc5[n+]41)([c]1ccccc1-c1sc4ccccc4[n+]13)[n+]1ccccc1-2)[c-]1cccc1.[Fe+2].c1cc[cH-]c1
Solution: 20.9

Exercise: Now the same for F[P-](F)(F)(F)(F)F.O=C(NCCCn1cc[n+]2[c]1[Ir-3]13([c]4c(sc5ccccc45)-c4cccc[n+]41)([c]1c(sc4ccccc14)-c1cccc[n+]13)[n+]1ccccc1-2)[c-]1cccc1.[Fe+2].c1cc[cH-]c1
Solution: 22.7

---

Tested on: MC3T3 osteoblast cells (non-tumor)
Assay: Cell viability assay (MTT), dark and blue light
Assay type: cell-based, Murine
Settings: MC3T3, blue light; read-out: GI50
measure: GI50 (µM)
Just the number in µM, nothing appended.

Exercise: Query the reported GI50 for MC3T3 osteoblast cells (non-tumor); item: F[P-](F)(F)(F)(F)F.O=C(O)CC[C@H](NC(=O)N[C@@H](CCCCNC(=O)CCn1cc[n+]2[c]1[Ir-3]13([c]4ccccc4-c4sc5ccccc5[n+]41)([c]1ccccc1-c1sc4ccccc4[n+]13)[n+]1ccccc1-2)C(=O)O)C(=O)O [III-k]
Solution: 33.8

Exercise: Now the same for F[P-](F)(F)(F)(F)F.O=C(O)CC[C@H](NC(=O)N[C@@H](CCCCNC(=O)CCn1cc[n+]2[c]1[Ir-3]13([c]4c(sc5ccccc45)-c4cccc[n+]41)([c]1c(sc4ccccc14)-c1cccc[n+]13)[n+]1ccccc1-2)C(=O)O)C(=O)O [III-j]
Solution: 12.5

Exercise: Now the same for F[P-](F)(F)(F)(F)F.O=C(NCCCn1cc[n+]2[c]1[Ir-3]13([c]4cccc5ccc6ccc[n+]1c6c45)([c]1cccc4ccc5ccc[n+]3c5c14)[n+]1ccccc1-2)[c-]1cccc1.[Fe+2].c1cc[cH-]c1 [IV-i]
Solution: 10
